Data origin, for the record: patent US5547960A

# study_target: FBS AChE (Bos taurus)
# Construct: FBS AChE; from tissue; host or cells: fetal bovine serum (FBS read as this abbreviation)
# assay_protocol: Inhibition of AChE (dissociation constant Ki, procedure of Y. Ashani et al.)
# Type: biochemical
# condition_info: procedure of Y. Ashani et al., Molecular Pharmacol., 45, 555 (1994); read-out: FBS AChE Ki; dissociation constant for inhibition of AChE
assay_readout: Ki (µM)

compound: C/C=C1\C2C=C(C)CC1(N)c1ccc(=O)[nH]c1C2CCCC (stereo not shown)
assay_readout: Ki
number: 192
--
compound: C=CCC1c2[nH]c(=O)ccc2C2(N)CC(C)=CC1/C2=C\C (stereo not shown)
assay_readout: Ki
number: 275
--
compound: C/C=C1\C2C=C(C)CC1(N)c1ccc(=O)[nH]c1C2CCC (stereo not shown)
assay_readout: Ki
number: 207
--
compound: C/C=C1\C2C=C(C)CC1(N)c1ccc(=O)[nH]c1C2C (stereo not shown)
assay_readout: Ki
number: 0.008

* * *

# study_target: FBS AChE (Bos taurus, UniProt P23795)
# Construct: FBS AChE; from tissue; host or cells: fetal bovine serum (FBS read as this abbreviation)
# Sequence (P23795 31-613): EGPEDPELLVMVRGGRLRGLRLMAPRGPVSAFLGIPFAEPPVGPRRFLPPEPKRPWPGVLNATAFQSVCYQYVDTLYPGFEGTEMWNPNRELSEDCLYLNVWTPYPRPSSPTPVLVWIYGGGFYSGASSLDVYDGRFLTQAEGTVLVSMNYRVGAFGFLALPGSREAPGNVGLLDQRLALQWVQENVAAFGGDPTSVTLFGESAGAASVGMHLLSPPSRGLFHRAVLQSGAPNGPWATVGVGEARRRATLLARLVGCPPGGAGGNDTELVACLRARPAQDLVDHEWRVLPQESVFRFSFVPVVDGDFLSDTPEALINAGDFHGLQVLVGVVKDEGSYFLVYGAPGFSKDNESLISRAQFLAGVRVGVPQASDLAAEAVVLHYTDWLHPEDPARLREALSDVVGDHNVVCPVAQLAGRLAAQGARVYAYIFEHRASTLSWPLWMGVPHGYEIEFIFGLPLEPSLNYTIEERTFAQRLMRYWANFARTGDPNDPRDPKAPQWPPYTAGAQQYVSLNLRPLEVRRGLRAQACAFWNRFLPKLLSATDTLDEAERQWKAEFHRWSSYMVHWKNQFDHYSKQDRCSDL
# assay_protocol: Inhibition of AChE (dissociation constant Ki, procedure of Y. Ashani et al.)
# Assay type: biochemical

compound: C/C=C1\C2C=C(C)CC1(N)c1ccc(=O)[nH]c1C2CC (stereo not shown)
study_target: FBS AChE (Bos taurus, UniProt P23795)
units: nM
Ki: 2040
